TESTED SYSTEM: recombinant SUMO1 (UniProt P63165 1-97)
Sequence (P63165 1-97): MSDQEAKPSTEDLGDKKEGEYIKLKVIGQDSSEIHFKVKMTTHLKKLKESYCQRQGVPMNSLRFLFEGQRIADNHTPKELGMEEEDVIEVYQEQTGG
PROTOCOL SUMMARY: ITC

BINDER: recombinant HERC2 ZZ domain (amino acids 2702–2755), WT (domain or fragment) IHPGVTCDGCQMFPINGSRFKCRNCDDFDFCETCFKTKKHNTRHTFGRINEPGQ
Kd: ~3000 nM
